- systemTested: HDAC2 (Homo sapiens, UniProt Q92769)
- Construct: purchased Enzo Life Sciences
- Sequence (Q92769 whole entry): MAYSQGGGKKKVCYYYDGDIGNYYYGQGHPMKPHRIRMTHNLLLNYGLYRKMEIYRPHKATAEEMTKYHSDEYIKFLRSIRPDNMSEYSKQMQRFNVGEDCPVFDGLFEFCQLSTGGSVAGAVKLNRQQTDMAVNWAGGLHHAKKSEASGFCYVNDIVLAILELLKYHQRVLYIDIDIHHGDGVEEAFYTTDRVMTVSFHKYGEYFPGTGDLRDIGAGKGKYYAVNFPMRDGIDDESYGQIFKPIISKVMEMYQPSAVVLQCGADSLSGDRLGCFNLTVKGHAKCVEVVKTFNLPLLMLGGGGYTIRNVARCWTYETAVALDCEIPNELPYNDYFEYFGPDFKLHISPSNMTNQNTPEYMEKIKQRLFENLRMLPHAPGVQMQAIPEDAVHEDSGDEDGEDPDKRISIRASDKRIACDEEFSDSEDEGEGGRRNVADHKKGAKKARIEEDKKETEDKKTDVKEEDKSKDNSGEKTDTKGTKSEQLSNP
- experimentalDetails: HDAC Inhibition Screening Assay (FLUOR DE LYS Fluorimetric Drug Discovery Kit), HDAC2
- Assay type: biochemical
- conditionParameters: 2 μM compound
measurementType: inhibition at 2 µM

>>> print(df.to_string())
                                    compound  recordedresult
 0     O=C(CCCCCCC(=O)Nc1ccc2c(c1)CCCC2=O)NO           > 80%
 1  Nc1cc(F)ccc1NC(=O)/C=C/c1ccc(COc2ccc3c(c2)CCCC3=O)cc1           < 50%
 2  O=C(CCCCNC(=O)c1ccc2c(c1)CC/C(=C\c1cc(C(F)(F)F)cc(C(F)(F)F)c1)C2=O)NO           < 50%
 3  CN(C)c1ccc(C(=O)NC2CCc3cc(/C=C/C(=O)NO)ccc32)cc1 (stereo not drawn)           > 80%
 4  COc1ccc(CCNC2CCc3cc(/C=C/C(=O)NO)ccc32)cc1 (stereo not drawn)           > 80%
 5  COc1ccc2c(c1)CCC2NC(=O)CCCCCCC(=O)NO (stereo not drawn)       50 to 80%
 6  O=C(/C=C/c1ccc2c(c1)CCC2NS(=O)(=O)c1cc(C(F)(F)F)cc(C(F)(F)F)c1)NO (stereo not drawn)       50 to 80%
 7  O=C(/C=C/c1ccc(COc2ccc3c(c2)CC/C(=C\c2cc(C(F)(F)F)cc(C(F)(F)F)c2)C3=O)cc1)NO           < 50%
 8  O=C(CCCCCC(=O)Nc1ccc2c(c1)CC/C(=C\c1cc(C(F)(F)F)cc(C(F)(F)F)c1)C2=O)NO       50 to 80%
 9  O=C(/C=C/c1ccc2c(c1)CCCC2NCCc1c[nH]c2ccccc12)NO (stereo not drawn)           > 80%
10  O=C(/C=C/c1ccc2c(c1)CCC2NC(=O)c1cc(C(F)(F)F)cc(C(F)(F)F)c1)NO (stereo not drawn)       50 to 80%
11  O=C(CCCCCN(CC(=O)NC1CCc2ccccc21)CC(=O)NC1CCc2ccccc21)NO (stereo not drawn)           > 80%
12  O=C(/C=C/c1ccc2c(c1)CCC2NCc1cc(C(F)(F)F)cc(C(F)(F)F)c1)NO (stereo not drawn)       50 to 80%
13  Nc1cc(F)ccc1NC(=O)CCCCCNC(=O)c1ccc2c(c1)CC/C(=C\c1cc(C(F)(F)F)cc(C(F)(F)F)c1)C2=O           < 50%
14  Nc1cc(F)ccc1NC(=O)CCCCCCC(=O)Nc1ccc2c(c1)CCC(Cc1cc(C(F)(F)F)cc(C(F)(F)F)c1)C2=O (stereo not drawn)           < 50%
15  Nc1cc(F)ccc1NC(=O)/C=C/c1ccc2c(c1)CCC2NS(=O)(=O)c1cc(C(F)(F)F)cc(C(F)(F)F)c1 (stereo not drawn)           < 50%
16  Nc1cc(F)ccc1NC(=O)/C=C/c1ccc(COc2ccc3c(c2)CC/C(=C\c2cc(C(F)(F)F)cc(C(F)(F)F)c2)C3=O)cc1           < 50%
17  O=C(/C=C/c1ccc(CNC(=O)COc2ccc3c(c2)CC/C(=C\c2cc(C(F)(F)F)cc(C(F)(F)F)c2)C3=O)cc1)NO           < 50%
18  O=C(/C=C/c1ccc2c(c1)CCC2NC(=O)c1ccc(F)cc1)NCCCCCC(=O)NO (stereo not drawn)           > 80%
19  O=C(NO)c1ccc(COc2ccc3c(c2)CCC(Cc2cc(C(F)(F)F)cc(C(F)(F)F)c2)C3=O)cc1 (stereo not drawn)           < 50%
20  O=C(/C=C/c1ccc2c(c1)CCC2NCCc1cc(C(F)(F)F)cc(C(F)(F)F)c1)NO (stereo not drawn)           > 80%
